SYSTEM NAME: T1, cynomolgus Trop-2-His protein (cynomolgus, UniProt P09758 27-274 (human entry))
T1 construct: also called cynmolgus Trop-His; Kactus Cat #TRP-CM121; not shown: His tag
T1 chain: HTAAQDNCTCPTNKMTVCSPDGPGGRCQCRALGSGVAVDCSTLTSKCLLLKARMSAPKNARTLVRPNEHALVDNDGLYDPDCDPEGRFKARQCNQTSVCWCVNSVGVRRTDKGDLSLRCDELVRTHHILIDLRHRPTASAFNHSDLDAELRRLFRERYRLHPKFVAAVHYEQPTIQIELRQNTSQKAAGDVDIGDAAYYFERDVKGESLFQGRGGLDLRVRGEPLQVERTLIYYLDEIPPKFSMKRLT
TEST: ELISA, coated Trop-2 protein
Exercise: for every item that follows, state its recorded pEC50.
Answer as the number alone; pEC50 is minus log10 of concentration in mol/L.

Query block: Entry 5D4 (antibody, V domains shown, Rabbit-derived clone; LEM construct: VH + rabbit IgG CH1 + human IgG1 CH2-CH3) VH: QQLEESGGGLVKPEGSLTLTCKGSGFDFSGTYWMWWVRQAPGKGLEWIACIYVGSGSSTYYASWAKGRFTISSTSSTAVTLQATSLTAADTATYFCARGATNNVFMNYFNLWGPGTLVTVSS VL: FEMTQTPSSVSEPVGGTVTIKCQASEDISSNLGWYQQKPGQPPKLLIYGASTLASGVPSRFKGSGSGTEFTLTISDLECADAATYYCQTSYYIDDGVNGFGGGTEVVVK has what pEC50?
Result block: 10.85

Query block: Try this binder too: 5D4-1 (antibody, V domains shown) VH: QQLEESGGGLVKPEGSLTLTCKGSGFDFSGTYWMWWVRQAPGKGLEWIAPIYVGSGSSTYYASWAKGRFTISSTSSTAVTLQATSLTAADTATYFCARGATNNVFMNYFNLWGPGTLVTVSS VL: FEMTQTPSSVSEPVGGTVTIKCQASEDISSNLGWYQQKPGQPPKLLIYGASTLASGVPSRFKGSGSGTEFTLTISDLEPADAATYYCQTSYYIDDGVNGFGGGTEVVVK
Result block: 10.64
